- System: Rattus norvegicus
- ASSAY NAME: Ratio of total cholesterol level in serum to HDL level in serum in Triton-X-100-induced hyperlipidemia Wistar albino rat model at 250 mg/kg, po qd for 7 days
- Format: functional
hey, just use y if measured Ratio is less than 4, otherwise n

Field: example entries. Status: answers known.
Cc1ccc(/N=C/c2c(-c3ccccc3)nc3sc(-c4ccc5c(c4)OCO5)nn23)cc1 | n
CC(C)OC(=O)C(C)(C)Oc1ccc(C(=O)c2ccc(Cl)cc2)cc1 [FENOFIBRATE] | y

We next turn to a different compound, shown below.
Identify whether the compound "Clc1ccc(-c2nc3sc(-c4ccc5c(c4)OCO5)nn3c2/C=N/c2ccc(Br)cc2)cc1" records Ratio below 4. y

* * *

- System: Rattus norvegicus
- ASSAY NAME: Hepatotoxicity in Triton-X-100-induced hyperlipidemia Wistar albino rat model assessed as SGPT level in serum at 250 mg/kg, po qd for 7 days
- Format: toxicity, organism-based
- Parameters: dose 250 mg/kg, route oral
- ASSAY SETUP: in vivo, 168 h
Property: Activity; scope: individual compounds
Your answer should be a plain number; it is taken to be in IU.

CC(C)OC(=O)C(C)(C)Oc1ccc(C(=O)c2ccc(Cl)cc2)cc1 [FENOFIBRATE] | 26.43
Fc1ccc(/N=C/c2c(-c3ccc(Cl)cc3)nc3sc(-c4ccc5c(c4)OCO5)nn23)cc1Cl | 27.8
Clc1ccc(-c2nc3sc(-c4ccc5c(c4)OCO5)nn3c2/C=N/c2ccc(Br)cc2)cc1 | 29.3

Please give measured Activity of the following entry: "O=[N+]([O-])c1ccc(/N=C/c2c(-c3ccc(Cl)cc3)nc3sc(-c4ccc5c(c4)OCO5)nn23)cc1" 28.3

Please report Activity for the following compound: "O=C(O)c1ccc(/N=C/c2c(-c3ccc(Cl)cc3)nc3sc(-c4ccc5c(c4)OCO5)nn23)cc1" 26.8

Input "NS(=O)(=O)c1ccc(/N=C/c2c(-c3ccc(Cl)cc3)nc3sc(-c4ccc5c(c4)OCO5)nn23)cc1" , output reported Activity. 28.6

* * *

Measured Activity values are reported for all entries that follow.
- Tested on: Rattus norvegicus
- ASSAY NAME: Hepatotoxicity in Triton-X-100-induced hyperlipidemia Wistar albino rat model assessed as SGOT level in serum at 250 mg/kg, po qd for 7 days
- Format: toxicity, organism-based
- Set-up: dose 250 mg/kg, route oral
- ASSAY SETUP: in vivo, 168 h
Write the answer as a number in IU, unit excluded.

# count of solved cases: 5
Fc1ccc(/N=C/c2c(-c3ccc(Cl)cc3)nc3sc(-c4ccc5c(c4)OCO5)nn23)cc1Cl | 56.5
Clc1ccc(-c2nc3sc(-c4ccc5c(c4)OCO5)nn3c2/C=N/c2ccc(Br)cc2)cc1 | 58.8
NS(=O)(=O)c1ccc(/N=C/c2c(-c3ccc(Cl)cc3)nc3sc(-c4ccc5c(c4)OCO5)nn23)cc1 | 51.7
O=[N+]([O-])c1ccc(/N=C/c2c(-c3ccc(Cl)cc3)nc3sc(-c4ccc5c(c4)OCO5)nn23)cc1 | 49.9
CC(C)OC(=O)C(C)(C)Oc1ccc(C(=O)c2ccc(Cl)cc2)cc1 [FENOFIBRATE] | 49.45

API: the following record is the query input.
Input "O=C(O)c1ccc(/N=C/c2c(-c3ccc(Cl)cc3)nc3sc(-c4ccc5c(c4)OCO5)nn23)cc1" , output reported Activity. 48.3

* * *

Entries and their Activity
- System: Rattus norvegicus
- ASSAY NAME: Antihyperlipidemic activity in Triton-X-100-induced hyperlipidemia Wistar albino rat model assessed as reduction of triglyceride level in serum at 250 mg/kg, po qd for 7 days
- Format: functional
Field format: number, assumed mg/dL, no unit text.

Recorded Activity, per entry:
Clc1ccc(-c2nc3sc(-c4ccc5c(c4)OCO5)nn3c2/C=N/c2ccc(Br)cc2)cc1 | 83.43
Cc1ccc(/N=C/c2c(-c3ccccc3)nc3sc(-c4ccc5c(c4)OCO5)nn23)cc1 | 88.43
O=C(O)c1ccc(/N=C/c2c(-c3ccc(Cl)cc3)nc3sc(-c4ccc5c(c4)OCO5)nn23)cc1 | 76.89
Cc1ccc(/N=C/c2c(-c3ccc(Cl)cc3)nc3sc(-c4ccc5c(c4)OCO5)nn23)cc1 | 85.67
Cc1cccc(/N=C/c2c(-c3ccc(Cl)cc3)nc3sc(-c4ccc5c(c4)OCO5)nn23)c1 | 86.23

Now, please, on to the next compound.
Give Activity for "COc1ccc(/N=C/c2c(-c3ccc(Cl)cc3)nc3sc(-c4ccc5c(c4)OCO5)nn23)cc1" 83.56

* * *

Each entry below carries its reported Activity.
- System: Rattus norvegicus
- ASSAY NAME: Antihyperlipidemic activity in Triton-X-100-induced hyperlipidemia Wistar albino rat model assessed as reduction of triglyceride level in serum at 250 mg/kg, po qd for 7 days
- Assay type: functional
Respond numerically; units are mg/dL and should not be typed.

Worked examples, 7 molecules total:
O=[N+]([O-])c1ccc(/N=C/c2c(-c3ccc(Cl)cc3)nc3sc(-c4ccc5c(c4)OCO5)nn23)cc1 | 82.56
C(=N\c1ccccc1)/c1c(-c2ccccc2)nc2sc(-c3ccc4c(c3)OCO4)nn12 | 89.12
NS(=O)(=O)c1ccc(/N=C/c2c(-c3ccc(Cl)cc3)nc3sc(-c4ccc5c(c4)OCO5)nn23)cc1 | 79.54
O=C(N/N=C/c1c(-c2ccc(Cl)cc2)nc2sc(-c3ccc4c(c3)OCO4)nn12)c1ccccc1 | 80.67
COc1ccc(/N=C/c2c(-c3ccccc3)nc3sc(-c4ccc5c(c4)OCO5)nn23)cc1 | 84.98
Fc1ccc(/N=C/c2c(-c3ccc(Cl)cc3)nc3sc(-c4ccc5c(c4)OCO5)nn23)cc1Cl | 80.45
Brc1ccc(/N=C/c2c(-c3ccccc3)nc3sc(-c4ccc5c(c4)OCO5)nn23)cc1 | 86.89

Turning now to a further record.
Query Activity for CC(C)OC(=O)C(C)(C)Oc1ccc(C(=O)c2ccc(Cl)cc2)cc1 [FENOFIBRATE] 71.23

* * *

# Activity per record follows
- System: Rattus norvegicus
- ASSAY NAME: Antihyperlipidemic activity in Triton-X-100-induced hyperlipidemia Wistar albino rat model assessed as reduction of total cholesterol level in serum at 250 mg/kg, po qd for 7 days
- Assay type: functional
Numeric only. Scale: mg/dL

The following molecules have reported results that may help.
Cc1ccc(/N=C/c2c(-c3ccc(Cl)cc3)nc3sc(-c4ccc5c(c4)OCO5)nn23)cc1 | 113.28
Fc1ccc(/N=C/c2c(-c3ccc(Cl)cc3)nc3sc(-c4ccc5c(c4)OCO5)nn23)cc1Cl | 99.89
COc1ccc(/N=C/c2c(-c3ccc(Cl)cc3)nc3sc(-c4ccc5c(c4)OCO5)nn23)cc1 | 107.83
O=C(N/N=C/c1c(-c2ccc(Cl)cc2)nc2sc(-c3ccc4c(c3)OCO4)nn12)c1ccccc1 | 107.87
Clc1ccc(-c2nc3sc(-c4ccc5c(c4)OCO5)nn3c2/C=N/c2ccc(Br)cc2)cc1 | 103.54
CC(C)OC(=O)C(C)(C)Oc1ccc(C(=O)c2ccc(Cl)cc2)cc1 [FENOFIBRATE] | 102.24
Cc1ccc(/N=C/c2c(-c3ccccc3)nc3sc(-c4ccc5c(c4)OCO5)nn23)cc1 | 114.36
O=[N+]([O-])c1ccc(/N=C/c2c(-c3ccc(Cl)cc3)nc3sc(-c4ccc5c(c4)OCO5)nn23)cc1 | 105.56

Here is another molecule to look at.
Using the record for "O=C(O)c1ccc(/N=C/c2c(-c3ccc(Cl)cc3)nc3sc(-c4ccc5c(c4)OCO5)nn23)cc1" , state its measured Activity. 96.12

* * *

Each record here notes measured Ratio.
- Tested on: Rattus norvegicus
- ASSAY NAME: Ratio of total cholesterol level in serum to HDL level in serum in Triton-X-100-induced hyperlipidemia Wistar albino rat model at 250 mg/kg, po qd for 7 days
- Assay type: functional

Cc1cccc(/N=C/c2c(-c3ccc(Cl)cc3)nc3sc(-c4ccc5c(c4)OCO5)nn23)c1 | 4.04
Cc1ccc(/N=C/c2c(-c3ccc(Cl)cc3)nc3sc(-c4ccc5c(c4)OCO5)nn23)cc1 | 3.89

Give a short answer stating reported Ratio for "COc1ccc(/N=C/c2c(-c3ccccc3)nc3sc(-c4ccc5c(c4)OCO5)nn23)cc1" . 3.95
